- System: P388 leukemia ip, CD2F1 mice, survival T/C
- test-name: NCI In Vivo Anticancer Drug Screen. Data for tumor model P388 Leukemia (intraperitoneal) in CD2F1 (CDF1) mice
- condition: endpoint: median survival time; dose: 200.0 mg/kg/injection; schedule: Q04DX003 (ip); vehicle: saline with Tween-80; higher = longer survival
Toxic doses and inconclusive results are not listed.
# T/C listing for each entry below
readout-type: T/C

> print(dat)
                                    molecule                          target.or.system  readout.type            result
 1  C=CCC(CC1CC2CCCCN2O1)OCc1ccccc1 (stereo unspecified)  P388 leukemia ip, CD2F1 mice, survival T/C           T/C  105 % of control
 2  COc1ccc(C(CC(=O)O)CC(=O)N(CCCl)CCCl)cc1 (stereo unspecified)  P388 leukemia ip, CD2F1 mice, survival T/C           T/C  101 % of control
 3         c1ccc2cc3c(cc2c1)Cn1c-3nc2ccccc21  P388 leukemia ip, CD2F1 mice, survival T/C           T/C   92 % of control
 4                  Cc1ccc(NC(=O)N(C)N=O)cc1  P388 leukemia ip, CD2F1 mice, survival T/C           T/C  100 % of control
 5                              CSC(=S)N(C)N  P388 leukemia ip, CD2F1 mice, survival T/C           T/C  105 % of control
 6      CCOC(=S)c1cc(C(=S)OCC)cc(C(C)(C)C)c1  P388 leukemia ip, CD2F1 mice, survival T/C           T/C  108 % of control
 7             Oc1ccc2ccccc2c1N=Nc1ccc(F)cc1  P388 leukemia ip, CD2F1 mice, survival T/C           T/C  100 % of control
 8                CCCn1c(=S)[nH]c2ccccc2c1=O  P388 leukemia ip, CD2F1 mice, survival T/C           T/C   91 % of control
 9  CCC(=O)O[C@H]1CC[C@H]2[C@@H]3[C@@H](C)CC4=CC(=O)CC[C@]4(C)[C@H]3CC[C@]12C  P388 leukemia ip, CD2F1 mice, survival T/C           T/C   90 % of control
10  COC(=O)c1ccc(COc2ccc([N+](=O)[O-])cc2Cl)cc1  P388 leukemia ip, CD2F1 mice, survival T/C           T/C  105 % of control
11                          c1ccc2n[nH]nc2c1  P388 leukemia ip, CD2F1 mice, survival T/C           T/C  109 % of control
12  CC(C)(C)c1ccc(C(c2ccc(C(C)(C)C)cc2)C(Cl)(Cl)Cl)cc1  P388 leukemia ip, CD2F1 mice, survival T/C           T/C  100 % of control
13                 CC(C)c1ccc(C(=O)CCCCl)cc1  P388 leukemia ip, CD2F1 mice, survival T/C           T/C  100 % of control
14         O=C(CCCCl)CC(O)(C(F)(F)F)C(F)(F)F  P388 leukemia ip, CD2F1 mice, survival T/C           T/C   90 % of control
15  O=C(Nc1ccc2c(c1)Cc1cccc(NC(=O)C(Cl)Cl)c1-2)C(Cl)Cl  P388 leukemia ip, CD2F1 mice, survival T/C           T/C   91 % of control
16  S=C(NC1CCCCC1)N1CCC(CCCC2CCN(C(=S)NC3CCCCC3)CC2)CC1  P388 leukemia ip, CD2F1 mice, survival T/C           T/C   90 % of control
17            COc1ccc(Oc2nc(=O)n3ccsc3n2)cc1  P388 leukemia ip, CD2F1 mice, survival T/C           T/C   86 % of control
18           CN(N=O)C(=O)NCCCCCNC(=O)N(C)N=O  P388 leukemia ip, CD2F1 mice, survival T/C           T/C  104 % of control
19  CN(C)c1nc(N/N=C/c2ccc([N+](=O)[O-])cc2)nc(N(C)C)n1  P388 leukemia ip, CD2F1 mice, survival T/C           T/C  105 % of control
20  CC1C[C@@H]2[C@H]([C@@H](O)C[C@@]3(C)[C@H]2CC[C@]3(O)C(=O)CF)[C@@]2(C)CCC(=O)C=C12 (stereo partly specified)  P388 leukemia ip, CD2F1 mice, survival T/C           T/C  109 % of control
21  C=C1C(=O)OC2C1CCC(=C)C1CC(OC3OC(CO)C(O)C(O)C3O)C(=C)C12 (stereo unspecified)  P388 leukemia ip, CD2F1 mice, survival T/C           T/C  104 % of control
